TESTED_SYSTEM: MetAP-2 (Homo sapiens, UniProt P50579)
Sequence (P50579 whole entry, species assumed): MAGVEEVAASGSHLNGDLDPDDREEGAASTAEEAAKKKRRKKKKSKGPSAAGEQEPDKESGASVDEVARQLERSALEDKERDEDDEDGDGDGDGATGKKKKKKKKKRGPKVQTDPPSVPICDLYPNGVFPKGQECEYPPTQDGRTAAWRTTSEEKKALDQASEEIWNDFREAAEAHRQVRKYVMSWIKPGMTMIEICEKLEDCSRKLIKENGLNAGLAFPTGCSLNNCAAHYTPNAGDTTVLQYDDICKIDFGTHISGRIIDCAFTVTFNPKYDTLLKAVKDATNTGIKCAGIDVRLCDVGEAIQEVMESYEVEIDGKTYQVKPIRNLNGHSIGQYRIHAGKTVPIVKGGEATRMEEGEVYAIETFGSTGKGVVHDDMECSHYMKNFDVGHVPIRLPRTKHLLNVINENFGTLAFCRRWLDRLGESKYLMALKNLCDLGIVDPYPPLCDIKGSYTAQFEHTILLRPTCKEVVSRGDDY
Would you kindly list IC50 for each of these compounds?

Per the records, this compound ( CCNC(=O)N1CCN(c2ccc3cccc(OC[C@H]4CCCN4c4ncnc5[nH]cnc45)c3c2)CC1 ) has IC50 equal to 1000 to 10000 nM

Per the records, this compound ( c1ccc2c(OC[C@H]3CCCN3c3ncnc4[nH]cnc34)ccc(CNCCCN3CCOCC3)c2c1 ) has IC50 equal to 10 to 1000 nM

Per the records, this compound ( COCCN1CCN(Cc2ccc(OC[C@H]3CCCN3c3ncnc4[nH]cnc34)c3ccccc23)CC1 ) has IC50 equal to 10 to 1000 nM

Per the records, this compound ( O=C(NCC1CC(O)C1)c1cc(OC[C@H]2CCCN2c2ncnc3[nH]cnc23)c2ccccc2n1 (some centres unmarked) ) has IC50 equal to 10 to 1000 nM

Per the records, this compound ( CC(=O)Nc1nc2ccc(CNC(=O)Nc3cc(C(F)(F)F)ccc3OCC3CCCN3c3ncnc4[nH]cnc34)cc2[nH]1 (centres unmarked) ) has IC50 equal to > 10000 nM

Per the records, this compound ( c1cc(OC[C@H]2CCCN2c2ncnc3[nH]cnc23)c2cnccc2c1 ) has IC50 equal to 10 to 1000 nM

Per the records, this compound ( c1cc(OC[C@H]2CCCN2c2ncnc3[nH]cnc23)c2cc(N3CCNCC3)ccc2c1 ) has IC50 equal to 10 to 1000 nM

Per the records, this compound ( c1ccc2c(OC[C@H]3CCCN3c3ncnc4[nH]cnc34)cc(CNCCN3CCOCC3)nc2c1 ) has IC50 equal to 10 to 1000 nM

Per the records, this compound ( Cn1ncc(Cl)c1/C=C1/CCc2c(OC[C@H]3CCCN3c3ncnc4[nH]cnc34)cccc2C1=O ) has IC50 equal to 10 to 1000 nM

Per the records, this compound ( Fc1ccc(-c2ncc(OC[C@H]3CCCN3c3ncnc4[nH]cnc34)cn2)cc1 ) has IC50 equal to 1000 to 10000 nM

Per the records, this compound ( O=C(NCCCO)c1cc(OC[C@H]2CCCN2c2ncnc3[nH]cnc23)c2ccccc2n1 ) has IC50 equal to 10 to 1000 nM

Per the records, this compound ( CCCCn1c(C)c(C(=O)OCC)c2cc(OC[C@H]3CCCN3c3ncnc4[nH]cnc34)ccc21 ) has IC50 equal to 1000 to 10000 nM

Per the records, this compound ( Cn1ncc(Cl)c1C[C@@H]1CCc2c(OC[C@H]3CCCN3c3ncnc4[nH]cnc34)cccc2C1=O ) has IC50 equal to 10 to 1000 nM

Per the records, this compound ( c1ccc(-c2ccc(OC[C@H]3CCCN3c3ncnc4[nH]cnc34)cc2)cc1 ) has IC50 equal to > 10000 nM

Per the records, this compound ( c1cc(OC[C@H]2CCCN2c2ncnc3[nH]cnc23)c2ncoc2c1 ) has IC50 equal to 1000 to 10000 nM

Per the records, this compound ( NCCCC[C@H](NC(=O)OCc1ccccc1)C(=O)N1CCc2cccc(OC[C@H]3CCCN3c3ncnc4[nH]cnc34)c2C1 ) has IC50 equal to 1000 to 10000 nM

Per the records, this compound ( c1ccc(-c2cccc(OC[C@H]3CCCN3c3ncnc4[nH]cnc34)c2)cc1 ) has IC50 equal to 1000 to 10000 nM

----------
pIC50: −log10 of the molar value.
READOUT: pIC50

Measured pIC50 (MetAP-2 (Homo sapiens)), entry O=c1c2ccccc2ccn1C[C@H]1CCCN1c1ncnc2[nH]cnc12 : < 5.00

Measured pIC50 (MetAP-2 (Homo sapiens)), entry O=C(O)CNC(=O)N1CCN(c2ccc3cccc(OC[C@H]4CCCN4c4ncnc5[nH]cnc45)c3c2)CC1 : < 5.00

Measured pIC50 (MetAP-2 (Homo sapiens)), entry O=C(O)/C=C1/CCc2c(OC[C@H]3CCCN3c3ncnc4[nH]cnc34)cccc2C1=O : 6.00 to 8.00

Measured pIC50 (MetAP-2 (Homo sapiens)), entry Cn1ncc(Cl)c1C[C@H]1CCc2c(OC[C@H]3CCCN3c3ncnc4[nH]cnc34)cccc2C1=O : 6.00 to 8.00

Measured pIC50 (MetAP-2 (Homo sapiens)), entry O=C(CC1CCc2c(OC[C@H]3CCCN3c3ncnc4[nH]cnc34)cccc2C1=O)NCCO (some centres unmarked) : 6.00 to 8.00

Measured pIC50 (MetAP-2 (Homo sapiens)), entry Clc1ncc(OC[C@H]2CCCN2c2ncnc3[nH]cnc23)c2ccccc12 : 6.00 to 8.00

Measured pIC50 (MetAP-2 (Homo sapiens)), entry c1cc(OC[C@H]2CCCN2c2ncnc3[nH]cnc23)c2cc(N3CCOCC3)ccc2c1 : 6.00 to 8.00

Measured pIC50 (MetAP-2 (Homo sapiens)), entry CC(=O)N1CCN(Cc2ccc(OC[C@H]3CCCN3c3ncnc4[nH]cnc34)c3ccccc23)CC1 : 6.00 to 8.00

Measured pIC50 (MetAP-2 (Homo sapiens)), entry CC(=O)c1cc2cccc(OC[C@H]3CCCN3c3ncnc4[nH]cnc34)c2o1 : 6.00 to 8.00

Measured pIC50 (MetAP-2 (Homo sapiens)), entry CC(C)(C)OC(=O)N[C@H](CC(N)=O)C(=O)Nc1ccc2cccc(OC[C@H]3CCCN3c3ncnc4[nH]cnc34)c2c1 : 5.00 to 6.00

Measured pIC50 (MetAP-2 (Homo sapiens)), entry O=C(NCCN1CCOCC1)c1cc(OC[C@H]2CCCN2c2ncnc3[nH]cnc23)c2ccccc2n1 : < 5.00

----------
METHOD_NOTES: Shake flask solubility measurement
Type: physicochemical
MEASUREMENT_PARAMETERS: sodium phosphate/sodium chloride buffer, aqueous buffer, thermodynamic from solid; shake flask, buffer; shaken at 37° C. for 24 h
Would you kindly list solubility at 24 h for each of these compounds?
API: value field is a number in µg/mL; no unit string.

Per the records, this compound ( O=C(c1ccc(CC[C@H]2CCCN2c2ncnc3[nH]cnc23)c2ccccc12)N1CCOCC1 ) has solubility at 24 h equal to 108

Per the records, this compound ( CNC(=O)/C=C1/CCc2c(OC[C@H]3CCCN3c3ncnc4[nH]cnc34)cccc2C1=O ) has solubility at 24 h equal to 29
